experiment: chemical genetic growth profiling, strain panel (AID 1159580);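 note: tested at 20 µM; growth read once vehicle control cultures reached saturation at 30 °C; 1 = growth at the plate median or of vehicle wells; lower values mean less growth of the strain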
run.conditions: S. cerevisiae deletion strains, growth OD, locus YPL209C, strain IPL1
Screen size: about 5,500 compounds; about 2,000 (36%) were called active. Inconclusive results (about 18%) are left out. Cut-off read from the data, not from the text of the source: active = normalized growth mostly below about 0.91 (no sharp cut-off); inconclusive = no clear call, values can overlap the other calls; inactive = mostly above about 0.92. The list shows a part of the results.
Would you mind answering with one of these outcomes? active, inactive

Cc1cc(C(=O)N(c2ccccc2)C(C)C2CC2)c(Cl)cc1Cl (stereo not given)
inactive
CC(C)(C)c1cc2nc(C(F)(F)F)cc(NNC(=O)c3ccc(Cl)cc3)n2n1
inactive
N/C(CSc1ccc(Cl)cc1)=N/OC(=O)c1ccc(C(F)(F)F)cc1
active
O=C1c2ccccc2O[C@@H](c2ccccc2)[C@@H]1NCc1ccccc1
inactive
O=C(NCc1cccs1)c1csc(Cc2c(Cl)cccc2Cl)n1
inactive

Query: Called result for "O=C1Nc2ccccc2/C1=N/N=C\c1ccccc1Cl"
Reply: inactive

Query: Hi, sorry to bother you, what did the test record for "Cc1nc(-c2ccc(C(F)(F)F)cn2)[nH]c(=O)c1Cl" ?
Reply: inactive

====

experiment: chemical genetic growth profiling, strain panel (AID 1159580);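 note: tested at 20 µM; growth read once vehicle control cultures reached saturation at 30 °C; 1 = growth at the plate median or of vehicle wells; lower values mean less growth of the strain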
run.conditions: S. cerevisiae deletion strains, growth OD, locus YCL011C, strain gbp2, active compounds read low
Out of some 5,500 compounds screened, about 2,000 (36%) were called active. Inconclusive results (about 18%) are left out. The list shows a part of the results.
measured.quantity: normalized growth
Write no unit; give the number alone.

Worked examples follow.
CCN(CC)CCNc1ccc(CO)c2sc3ccccc3c(=O)c12
1
COc1ccc(-c2cc(=O)c3c(O)c(OC)c(OC)c(OC)c3o2)cc1
0.987
O=C(O)c1cn(-c2ccc(F)cc2)c2cc(N3CCNCC3)c(F)cc2c1=O
0.975

Query: Which measured normalized growth value corresponds to C=C1C(N)CC2CC1C2(C)C (stereo unspecified) ?
Reply: 0.983

Query: Look up normalized growth: "COc1ccc(-c2cc(=O)c3c(OC)c(OC)c(OC)c(OC)c3o2)cc1"
Reply: 0.907

Query: Could you tell me which normalized growth is on file for "Nc1nc(N)c2nc(-c3ccccc3)c(N)nc2n1" ?
Reply: 0.992

Query: # lookup: normalized growth of Cn1nnnc1SCC1=C(C(=O)O)N2C(=O)C(NC(=O)C(O)c3ccccc3)C2SC1 (stereo unspecified)
Reply: 0.971

Query: Fill blank: measured normalized growth of the compound CC1(C)O[C@@H]2CC3C4CCC5=CC(=O)C=C[C@]5(C)[C@@]4(F)[C@@H](O)C[C@]3(C)[C@]2(C(=O)CO)O1 (stereo partly specified) is ____.
Reply: 1.02

Query: Any idea what normalized growth was measured for OC1C(O)C(O)C(O)C(O)C1O (stereo unspecified) ?
Reply: 1.01

Query: Entry "CC1=NCCc2c1[nH]c1cc(O)ccc21" has what normalized growth?
Reply: 0.963

Query: // lookup normalized growth for CC(C)(C)C(=O)C(Oc1ccc(Cl)cc1)n1cncn1 (stereo unspecified)
Reply: 0.124

====

experiment: chemical genetic growth profiling, strain panel (AID 1159580);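 note: tested at 20 µM; growth read once vehicle control cultures reached saturation at 30 °C; 1 = growth at the plate median or of vehicle wells; lower values mean less growth of the strain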
run.conditions: S. cerevisiae deletion strains, growth OD, locus YOR083W, strain WHI5, active compounds read low
Screen size: about 5,500 compounds; about 2,000 (36%) were called active. About 18% were inconclusive and are not listed. This is one part of the list.
measured.quantity: normalized growth

Examples with their reported normalized growth follow.
O=C1CC[C@]23C=CC(=O)NCCCCNCCCNC(=O)/C=C/c4ccc(c2c4)O[C@@H]3C1
1.01 (inactive)
COc1cc([C@@H]2c3cc4c(cc3[C@H](O)[C@H]3COC(=O)[C@@H]23)OCO4)cc(OC)c1OC
1.02 (inactive)
CCC(/C=C/[C@@H](C)[C@H]1CCC2C3CC=C4C[C@@H](O)CC[C@]4(C)C3CC[C@@]21C)C(C)C (stereo partly specified)
1.05 (inactive)
COc1cccc2c1cc([N+](=O)[O-])c1c(C(=O)O)cc3c(c12)OCO3
1 (inactive)
COc1c(O)cccc1O
1.03 (inactive)

Query: Value lookup for normalized growth; key = CC(=O)[C@H]1CCC2C3CC=C4C[C@@H](O)CC[C@]4(C)C3CC[C@@]21C (stereo partly specified)
Reply: 0.907 (inactive)

Query: Would you kindly share the measured normalized growth for "O=c1c2ccccc2[se]n1-c1ccccc1" ?
Reply: 0.0645 (active)

Query: Find the recorded normalized growth belonging to "CC(=O)Oc1ccc(-c2cc(=O)c3c(OC(C)=O)cc(OC(C)=O)cc3o2)cc1" and report it.
Reply: 1.02 (inactive)
